What pIC50 was measured for each of the following?
- Test system: HepG2
- Assay summary: Cytotoxicity against human HepG2 cells after 3 days by MTT assay
- Assay type: functional, cell-based
- Settings: HepG2, 72 h
Just so you know, pIC50 here is -log10 of the concentration in molar units; reply with that number alone.

What the record says about Cc1ccc2nc(C)n(NC(=O)c3sc(=S)n(-c4ccccc4)c3N)c(=O)c2c1 : pIC50 is 4.57

What the record says about Cc1ccc2nc(C)n(NC(=O)c3sc4c(c3N)CCCC4)c(=O)c2c1 : pIC50 is 4.66

What the record says about Cc1ccc(/C=C(\C#N)C(=O)Nn2c(C)nc3ccc(C)cc3c2=O)cc1 : pIC50 is 4.92

What the record says about Cc1ccc2nc(C)n(NC(=O)/C(C#N)=N/Nc3ccccc3)c(=O)c2c1 : pIC50 is 4.92

What the record says about Cc1ccc2nc(C)n(NC(=O)/C(C#N)=C/c3cccc(O)c3)c(=O)c2c1 : pIC50 is 4.85

What the record says about COc1cccc2c1C(=O)c1c(O)c3c(c(O)c1C2=O)C[C@@](O)(C(=O)CO)C[C@@H]3O[C@H]1C[C@H](N)[C@H](O)[C@H](C)O1 : pIC50 is 5.05

What the record says about Cc1ccc2nc(C)n(-n3c(N)cc(N)c(C#N)c3=O)c(=O)c2c1 : pIC50 is 4.77

What the record says about Cc1ccc2nc(C)n(NC(=O)CC#N)c(=O)c2c1 : pIC50 is 4.26

What the record says about Cc1ccc2nc(C)n(-n3c(O)cc(N)c(C#N)c3=O)c(=O)c2c1 : pIC50 is 4.39
